Target: CRX HD R41Q (UniProt O43186 31-107, R41Q)
Sequence (O43186 31-107 R41Q): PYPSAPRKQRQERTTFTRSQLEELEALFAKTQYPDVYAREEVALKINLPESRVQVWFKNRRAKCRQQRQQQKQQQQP
Assay: BLI
parameterMeasured: Kd (nM)
Numbers only; they are read as nM.

IN: Would you kindly share the measured Kd for Ret4 20-mer biotinylated (dsDNA) DNA 1: CAGGAGCTTAGGAGGGGGAG DNA 2: CTCCCCCTCCTAAGCTCCTG ?
OUT: 1250
